All figures here come from patent US20250353873A1.

Tested on: human APOE RNA
procedureText: Dose-dependent inhibition of human APOE RNA in differentiated SH-SY5Y cells, free uptake, 5 days (Example 5)
Type: cell-based
conditionLabel: 5 nM, 5 days (Table 14)
Protocol: Modified oligonucleotides selected from the examples above were tested at various doses in differentiated SH-SY5Y cells. The modified oligonucleotides were tested in a series of experiments that had the same culture conditions. Differentiated SH-SY5Y cells plated at a density of 10,000 cells per well were treated by free uptake with various concentrations of modified oligonucleotide as specified in the tables below. […]
Strand notation (5' to 3'): a small letter for the sugar, then the base; units joined by * are phosphorothioate-linked, units joined directly phosphodiester-linked; [ ] holds rarer units or linkages, { } end groups; capitals alone tell only the bases. [ms] = mesyl phosphoramidate linkage; e = 2'-O-(2-methoxyethyl) (MOE); k = constrained ethyl (cEt); [5mC] = 5-methylcytosine; d = 2'-deoxy (DNA)
measuredProperty: APOE RNA (% UTC)
Reply with just the number (in % UTC).

// known answers, use as guide
1778130: modified oligonucleotide complementary to human APOE RNA (eA*e[5mC]eTeTeG*kG*dT*dG[ms]dA[ms]dA*dT*d[5mC]*dT*dT*dT*dA[ms]kTkT*eA*eA; antisense) [compound 1778130]
78
1778131: modified oligonucleotide complementary to human APOE RNA (eA*e[5mC]eTeTeGkG*dT*dG[ms]dA[ms]dA*dT*d[5mC]*dT*dT*dT*dA[ms]kTkT*eA*eA; antisense) [compound 1778131]
69
1746809 (k[5mC]*dT[ms]kT*dG[ms]kG*dT[ms]dG[ms]dA[ms]dA[ms]dT*d[5mC]*dT*dT*dT*dA[ms]dT*dT[ms]kA*kA*kA; antisense) [Compound 1746809]
93
1746804 (k[5mC]*kT*kT*dG[ms]dG[ms]dT[ms]dG[ms]dA[ms]dA[ms]dT*d[5mC]*dT*dT*dT*dA[ms]dT*dT[ms]kA*kA*kA; antisense) [Compound 1746804]
114
1785598: modified oligonucleotide complementary to human APOE RNA (k[5mC]*kT*kT*dG[ms]dG[ms]dT[ms]dG[ms]dA[ms]dA[ms]dT*d[5mC]*dT*dT*dT*dA*dT[ms]kT*kA*dA[ms]kA; antisense) [compound 1785598]
72
1785599: modified oligonucleotide complementary to human APOE RNA (k[5mC]*kT*kT*dG[ms]dG[ms]dT[ms]dG[ms]dA[ms]dA[ms]dT[ms]d[5mC]*dT*dT*dT*dA*dT*kT*kA*dA[ms]kA; antisense) [compound 1785599]
77
^mCksTksTksGdzGdzTdzGdzAdzAdzTds^mCdsTdsTdsTdsAdsTdsTksAksAdzAk (antisense k[5mC]*kT*kT*dG[ms]dG[ms]dT[ms]dG[ms]dA[ms]dA[ms]dT*d[5mC]*dT*dT*dT*dA*dT*kT*kA*dA[ms]kA) [Compound No. 1785602]
84

With those in mind, consider the next substance.
Fill in: human APOE RNA APOE RNA (% UTC) for 1778128: modified oligonucleotide complementary to human APOE RNA (eA*e[5mC]eTeTkGkG*dT*dG[ms]dA[ms]dA*dT*d[5mC]*dT*dT*dT*dA[ms]kTeT*eA*eA; antisense) [compound 1778128] = 91
